# Tested on: MX-1 breast xenograft, intrarenal, nude mice, tumor weight
# ASSAY_OVERVIEW: NCI In Vivo Anticancer Drug Screen. Data for tumor model Human Mammary Carcinoma MX-1 Xenograft (intrarenal inoculation) in NU/NU BALB/C (nude) mice
# APPLIED_CONDITIONS: endpoint: mean tumor weight change; dose: 300.0 mg/kg/injection; schedule: Q04DX003 (ip); vehicle: other; higher = larger tumour
Results filed as inconclusive are left out.
# maps each entry to its T/C

Solved cases (3 shown):
STRUCTURE_AS_SMILES	MEASURE	ENDPOINT_RESULT
Nc1n[nH]c2ccccc12	T/C	93 % of control
Cc1noc2nc(-c3ccccc3)cc(N3CCN(C)CC3)c12	T/C	92 % of control
NC(=S)N/N=C/c1cc(=O)c2cc(Cl)ccc2o1	T/C	103 % of control

The recorded T/C for entry "CO[C@@H]1C2=CC=CC=C[C@H]2n2c(=O)n(C)c(=O)n21" equals 92 % of control

* * *

The following compounds are listed with their measured T/C values.
# Tested on: MX-1 breast xenograft, intrarenal, nude mice, tumor weight
# ASSAY_OVERVIEW: NCI In Vivo Anticancer Drug Screen. Data for tumor model Human Mammary Carcinoma MX-1 Xenograft (intrarenal inoculation) in NU/NU BALB/C (nude) mice
# APPLIED_CONDITIONS: endpoint: mean tumor weight change; dose: 50.0 mg/kg/injection; schedule: Q04DX003 (sc); vehicle: Klucel (hydroxypropylcellulose) (HPC); higher = larger tumour
Results filed as inconclusive are left out.

COMPOUND	MEASURE	ENDPOINT_RESULT
OC(CBr)C(O)C(O)C(O)CBr (configuration not stated)	T/C	35 % of control
O=S(CCCl)CCCl	T/C	92 % of control

The compound "CC(=O)OCC(=O)[C@@]12OC(C)(C)O[C@@H]1C[C@H]1[C@@H]3CC(C=O)=C4C=C(OCCCl)CC[C@]4(C)[C@@]3(F)[C@@H](O)C[C@@]12C" showed T/C equal to 81 % of control

T/C measured on "O=NN(CCCl)C(=O)NC1CCCCC1" = 31 % of control

Measured T/C of "COc1ccc(Cl)[n+]([O-])n1" : 111 % of control

T/C for "O=S1(=O)CS(=O)(=O)OCCO1" is 2 % of control

The reported T/C of the compound "C=CC(C)(C)n1cc(C2=C(O)C(=O)C(c3cn(C(C)(C)C=C)c4ccccc34)=C(O)C2=O)c2ccccc21" was 80 % of control

* * *

# Tested on: MX-1 breast xenograft, intrarenal, nude mice, tumor weight
# ASSAY_OVERVIEW: NCI In Vivo Anticancer Drug Screen. Data for tumor model Human Mammary Carcinoma MX-1 Xenograft (intrarenal inoculation) in NU/NU BALB/C (nude) mice
# APPLIED_CONDITIONS: endpoint: mean tumor weight change; dose: 150.0 mg/kg/injection; schedule: Q04DX003 (ip); vehicle: saline with Tween-80; higher = larger tumour
Inconclusive results are not listed.
MEASURE: T/C

MOLECULE	TARGET_UNDER_TEST	T/C
COc1ccc(C[C@@H]2NC[C@@H](O)[C@@H]2OC(C)=O)cc1	MX-1 breast xenograft, intrarenal, nude mice, tumor weight	78 % of control

Next molecule, T/C to be filled in.
Briefly, T/C measured for "c1ccc(-c2cc3cc4ccccc4cn3c2)cc1" : 61 % of control
